Test system: S. epidermidis RP62A
test.details: MIC assay (broth dilution in tubes, CLSI)
Assay type: cell-based
condition.notes: Staphylococcus epidermidis; S. epidermidis RP62A (biofilm-forming strain); read-out: Minimal inhibitory concentration (MIC)
Excerpt: Staphylococcus epidermidis ATCC12228 and RP62A strains were purchased from the American Type Culture Collection (ATCC, Manassas, USA). Staphylococcus aureus ATCC29213, Escherichia coli ATCC25922 and Pseudomonas aeruginosa ATCC27853 were kindly provided by Dr. Bijie Hu at Zhongshan Hospital (Shanghai, China). […]
Property: MIC; scope: individual molecules
Return type: number; implicit unit µM.

[
  {
    "molecule": "CC(=O)Nc1ccccc1C(=O)Nc1ccc2cc3ccc(NC(=O)c4ccccc4NC(C)=O)cc3nc2c1 [Compound 3]",
    "observable": "MIC",
    "numeric.value": 25
  },
  {
    "molecule": "CCOC(=O)C1=C(c2ccccc2)N=c2s/c(=C/c3ccc(-c4cccc(C(O)O)c4)o3)c(=O)n2C1c1ccc2c(c1)OCO2 (stereo not drawn) [Compound 5]",
    "observable": "MIC",
    "numeric.value": 6.25
  },
  {
    "molecule": "O=C(NNC(=O)c1c(Br)c(Br)c(Br)c(Br)c1C(O)O)c1cc(Cl)ccc1O [Compound 1]",
    "observable": "MIC",
    "numeric.value": 50
  },
  {
    "molecule": "CCc1ccccc1N=C1SC(=Cc2ccc(OCC(O)O)c(OC)c2)C(=O)N1c1ccccc1CC [Compound 2]",
    "observable": "MIC",
    "numeric.value": 25
  }
]

stdin: Please state recorded MIC (tested on S. epidermidis RP62A) of Cc1ccc(C(O)O)cc1-c1ccc(/C=N/NC(=O)c2cc3c(ccc4ccccc43)o2)o1 [Compound 4]
stdout: 12.5

* * *

Test system: S. aureus ATCC29213
test.details: MIC assay (broth dilution in tubes, CLSI)
Type: cell-based, Staphylococcus aureus
observable: Inhibitory effect against S. aureus

[
  {
    "compound": "O=C(NNC(=O)c1c(Br)c(Br)c(Br)c(Br)c1C(O)O)c1cc(Cl)ccc1O",
    "result": "inhibited the growth"
  },
  {
    "compound": "CCOC(=O)C1=C(c2ccccc2)N=c2s/c(=C/c3ccc(-c4cccc(C(O)O)c4)o3)c(=O)n2C1c1ccc2c(c1)OCO2 (stereo not shown)",
    "result": "effective"
  },
  {
    "compound": "CC(=O)Nc1ccccc1C(=O)Nc1ccc2cc3ccc(NC(=O)c4ccccc4NC(C)=O)cc3nc2c1",
    "result": "inhibited the growth"
  },
  {
    "compound": "CCc1ccccc1N=C1SC(=Cc2ccc(OCC(O)O)c(OC)c2)C(=O)N1c1ccccc1CC",
    "result": "effective"
  }
]

* * *

Test system: Vero cell
test.details: Cytotoxicity on Vero cell (MTT, Cell Proliferation Kit I)
Assay type: cell-based, African Green-monkey
condition.notes: highest concentration tested 200 μM
observable: CC50 (µM)
Provide the reading as a plain figure in µM.

stdin: Could you share which CC50 value was measured for CC(=O)Nc1ccccc1C(=O)Nc1ccc2cc3ccc(NC(=O)c4ccccc4NC(C)=O)cc3nc2c1 [Compound 3] ?
stdout: 152

* * *

test.details: Erythrocyte hemolysis assay
Format: cell-based, human
condition.notes: human, erythrocytes (5% suspension), at 4 × MIC (number in parenthesis); 1 hour, 37°C
Experimental: Cytotoxicity of the antibacterial compounds on cultured Vero cell was measured by using the Cell Proliferation Kit I (MTT) (Roche, Indianapolis, USA) according to the manufacturer's protocol. […] Hemolytic activities of the compounds were determined by using healthy human erythrocytes. […] Volumes of 100 μl supernatants were transferred to another sterile plate and hemoglobin release from the cells was determined at 570 nm. […]
hemolysis at 1 h reference
Enter your answer as a number in %; do not include the unit.

[
  {
    "compound": "Cc1ccc(C(O)O)cc1-c1ccc(/C=N/NC(=O)c2cc3c(ccc4ccccc43)o2)o1",
    "numeric.value": 0.4
  },
  {
    "compound": "CC(=O)Nc1ccccc1C(=O)Nc1ccc2cc3ccc(NC(=O)c4ccccc4NC(C)=O)cc3nc2c1",
    "numeric.value": 0.5
  }
]

Proceed to the following item.
stdin: Requested read-out: hemolysis at 1 h. Entry: CCOC(=O)C1=C(c2ccccc2)N=c2s/c(=C/c3ccc(-c4cccc(C(O)O)c4)o3)c(=O)n2C1c1ccc2c(c1)OCO2 (stereo not drawn)
stdout: 0.3

* * *

test.details: Cytotoxicity on Vero cell (MTT, Cell Proliferation Kit I)
Format: cell-based, African Green-monkey
condition.notes: African green monkey, Vero cells, highest concentration tested 200 μM
observable: CC50

Example cases with answers are listed next.
[
  {
    "molecule": "Cc1ccc(C(O)O)cc1-c1ccc(/C=N/NC(=O)c2cc3c(ccc4ccccc43)o2)o1",
    "result": "> 200 µM"
  },
  {
    "molecule": "CCOC(=O)C1=C(c2ccccc2)N=c2s/c(=C/c3ccc(-c4cccc(C(O)O)c4)o3)c(=O)n2C1c1ccc2c(c1)OCO2 (centres unmarked)",
    "result": "> 200 µM"
  },
  {
    "molecule": "CC(=O)Nc1ccccc1C(=O)Nc1ccc2cc3ccc(NC(=O)c4ccccc4NC(C)=O)cc3nc2c1",
    "result": "< 200 µM"
  },
  {
    "molecule": "Cc1ccc(NC(=O)CN2C(=O)S/C(=C\\c3ccc(OCc4cccc(C(O)O)c4)cc3)C2=O)cc1",
    "result": "> 200 µM"
  }
]

Okay, next one:
stdin: Value lookup for CC50; key = O=C(NNC(=O)c1c(Br)c(Br)c(Br)c(Br)c1C(O)O)c1cc(Cl)ccc1O
stdout: > 200 µM

* * *

test.details: Erythrocyte hemolysis assay
Type: cell-based, human
condition.notes: human, at 4 × MIC (number in parenthesis); 1 hour, 37°C
observable: hemolysis at 1 h (%)
Answer in %, number only, no unit symbol.

stdin: # get_value(readout='hemolysis at 1 h', item= CCOc1cccc(N2C(=O)/C(=C\c3ccc(OCc4ccc(F)cc4)c(Br)c3)C(=O)NC2=S)c1 )
stdout: 2.3

* * *

System: S. pyogenes 144
test.details: MIC assay (broth dilution in tubes, CLSI)
Type: cell-based, Streptococcus pyogenes
observable: Inhibitory effect against Streptococcus pyogenes

[
  {
    "compound": "CC(=O)Nc1ccccc1C(=O)Nc1ccc2cc3ccc(NC(=O)c4ccccc4NC(C)=O)cc3nc2c1",
    "result": "inhibited the growth"
  },
  {
    "compound": "CCc1ccccc1N=C1SC(=Cc2ccc(OCC(O)O)c(OC)c2)C(=O)N1c1ccccc1CC",
    "result": "effective"
  },
  {
    "compound": "CCOC(=O)C1=C(c2ccccc2)N=c2s/c(=C/c3ccc(-c4cccc(C(O)O)c4)o3)c(=O)n2C1c1ccc2c(c1)OCO2 (centres unmarked)",
    "result": "effective"
  },
  {
    "compound": "O=C(NNC(=O)c1c(Br)c(Br)c(Br)c(Br)c1C(O)O)c1cc(Cl)ccc1O",
    "result": "inhibited the growth"
  }
]

* * *

tested.target: YycG' protein (Staphylococcus epidermidis)
Construct: of YycG (370aa to 610aa) was amplified by PCR; His-tag (pET28a) (N); made in house; host or cells: E. coli BL21 (pET28a, pETYycG')
Sequence (Q8CU87 370-610): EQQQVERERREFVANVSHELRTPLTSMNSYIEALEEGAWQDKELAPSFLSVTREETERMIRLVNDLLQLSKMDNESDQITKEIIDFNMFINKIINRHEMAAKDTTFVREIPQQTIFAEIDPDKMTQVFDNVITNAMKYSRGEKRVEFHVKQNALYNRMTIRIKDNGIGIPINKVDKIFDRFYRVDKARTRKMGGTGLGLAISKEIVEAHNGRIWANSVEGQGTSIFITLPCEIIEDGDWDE
test.details: Inhibition of YycG' ATPase activity / autophosphorylation (Kinase-Glo Luminescent Kinase Assay)
Format: biochemical
pIC50: −log10 of the molar value.
observable: pIC50

stdin: pIC50 lookup needed for CCOc1cccc(N2C(=O)/C(=C\c3ccc(OCc4ccc(F)cc4)c(Br)c3)C(=O)NC2=S)c1 [Compound 6] , thanks.
stdout: < 3.70

* * *

test.details: Erythrocyte hemolysis assay
Assay type: cell-based, human
condition.notes: human, erythrocytes (5% suspension), at MIC for S. epidermidis ATCC12228; 1 hour, 37°C
observable: hemolysis at 1 h

// solved cases for hemolysis at 1 h follow
[
  {
    "compound": "CC(=O)Nc1ccccc1C(=O)Nc1ccc2cc3ccc(NC(=O)c4ccccc4NC(C)=O)cc3nc2c1 [Compound 3]",
    "result": "< 0.1%"
  },
  {
    "compound": "Cc1ccc(NC(=O)CN2C(=O)S/C(=C\\c3ccc(OCc4cccc(C(O)O)c4)cc3)C2=O)cc1 [Compound 7]",
    "result": "< 0.1%"
  }
]

stdin: # input compound: O=C(NNC(=O)c1c(Br)c(Br)c(Br)c(Br)c1C(O)O)c1cc(Cl)ccc1O [Compound 1] ; wanted: its hemolysis at 1 h
stdout: < 0.1%

* * *

test.details: Erythrocyte hemolysis assay
Type: cell-based, human
condition.notes: human, erythrocytes (5% suspension), at 4 × MIC (number in parenthesis); 1 hour, 37°C
Reported values of hemolysis at 1 h for individual entries

Some solved entries appear below for comparison.
[
  {
    "query.smiles": "Cc1ccc(NC(=O)CN2C(=O)S/C(=C\\c3ccc(OCc4cccc(C(O)O)c4)cc3)C2=O)cc1",
    "hemolysis at 1 h": "< 0.1%"
  },
  {
    "query.smiles": "O=C(NNC(=O)c1c(Br)c(Br)c(Br)c(Br)c1C(O)O)c1cc(Cl)ccc1O",
    "hemolysis at 1 h": "< 0.1%"
  }
]

stdin: Which hemolysis at 1 h value belongs to CCc1ccccc1N=C1SC(=Cc2ccc(OCC(O)O)c(OC)c2)C(=O)N1c1ccccc1CC ?
stdout: ~6%
